# method.summary: Stability in animal lung tissue homogenate, skin tissue homogenate and aqueous humor
# Type: in vitro ADME
measured.attribute: stability in animal lung tissue homogenate, skin tissue homogenate, and aqueous humor

compound	val
C[C@]12C=CC(=O)C=C1CC[C@H]1[C@@H]3C[C@H]4OC(c5ccc(COC6CCOC6=O)cc5)O[C@@]4(C(=O)CO)[C@@]3(C)C[C@H](O)[C@@]12F (stereo partly drawn) [Compound 16]	relatively stable
C[C@]12C=CC(=O)C=C1[C@@H](F)C[C@H]1[C@@H]3C[C@H]4OC(c5ccc(CSC6CCOC6=O)nc5)O[C@@]4(C(=O)CO)[C@@]3(C)C[C@H](O)[C@@]12F (stereo partly drawn) [Compound 46]	relatively stable
C[C@]12C=CC(=O)C=C1CC[C@H]1[C@@H]3C[C@H]4OC(c5ccc(CSC6COC(=O)C6)cc5Cl)O[C@@]4(C(=O)CO)[C@@]3(C)C[C@H](O)[C@@]12F (stereo partly drawn) [Compound 20]	relatively stable

* * *

# test.target: glucocorticoid receptor (GR) (Homo sapiens, UniProt P04150)
# Sequence (P04150 521-777): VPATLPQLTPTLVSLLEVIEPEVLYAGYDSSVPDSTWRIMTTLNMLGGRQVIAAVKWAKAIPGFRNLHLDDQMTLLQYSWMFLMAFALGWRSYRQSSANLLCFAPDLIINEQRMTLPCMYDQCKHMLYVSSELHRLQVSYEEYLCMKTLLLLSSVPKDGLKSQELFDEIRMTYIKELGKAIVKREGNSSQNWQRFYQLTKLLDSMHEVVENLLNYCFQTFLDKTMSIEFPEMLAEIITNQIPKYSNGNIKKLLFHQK
# method.summary: Assay for agonist activity on glucocorticoid receptor (luciferase reporter, HEK293 cells transfected with pBIND-GR plasmid)
# Assay type: cell-based
# test.settings: HEK293 cells transfected with pBIND-GR, luciferase signal; read-out: GR agonist EC50
Strictly below 4 nM in EC50: Criterion met. Otherwise: Criterion not met.

Determine if C[C@]12C=CC(=O)C=C1CC[C@H]1[C@@H]3C[C@H]4OC(c5ccc(CSC6CCOC6=O)cc5)O[C@@]4(C(=O)CCl)[C@@]3(C)C[C@H](O)[C@@]12Cl (stereo partly shown) [Compound 38] shows EC50 strictly lower than 4 nM. Criterion met

Determine if C[C@]12C=CC(=O)C=C1CC[C@@H]1[C@@H]2[C@@H](O)C[C@@]2(C)[C@H]1C[C@H]1OC(c3ccc(CNC4COC(=O)C4)cc3)O[C@]12C(=O)CO (stereo partly shown) [Compound 33] shows EC50 strictly lower than 4 nM. Criterion not met

Determine if C[C@]12C=CC(=O)C=C1CC[C@H]1[C@@H]3C[C@H]4OC(c5ccc(NC6CCOC6=O)cc5)O[C@@]4(C(=O)CO)[C@@]3(C)C[C@H](O)[C@@]12F (stereo partly shown) [Compound 42] shows EC50 strictly lower than 4 nM. Criterion not met

Determine if C[C@]12C=CC(=O)C=C1CC[C@H]1[C@@H]3C[C@H]4OC(c5ccc(C[S+]([O-])C6CCOC6=O)cc5)O[C@@]4(C(=O)CO)[C@@]3(C)C[C@H](O)[C@@]12F (stereo partly shown) [Compound 56] shows EC50 strictly lower than 4 nM. Criterion met

Determine if C[C@]12C=CC(=O)C=C1CC[C@H]1[C@@H]3C[C@H]4OC(C5CCN(CC6CCOC6=O)CC5)O[C@@]4(C(=O)CO)[C@@]3(C)C[C@H](O)[C@@]12F (stereo partly shown) [Compound 44] shows EC50 strictly lower than 4 nM. Criterion not met

Determine if C[C@]12C=CC(=O)C=C1CC[C@H]1[C@@H]3C[C@H]4OC(c5ccc(CSC6COC(=O)C6)cc5Cl)O[C@@]4(C(=O)CO)[C@@]3(C)C[C@H](O)[C@@]12F (stereo partly shown) [Compound 20] shows EC50 strictly lower than 4 nM. Criterion met

Determine if C[C@]12C=CC(=O)C=C1[C@@H](F)C[C@H]1[C@@H]3C[C@H]4OC(c5ccc(NC(=O)C6COC(=O)C6)cc5)O[C@@]4(C(=O)CO)[C@@]3(C)C[C@H](O)[C@@]12F (stereo partly shown) [Compound 2] shows EC50 strictly lower than 4 nM. Criterion not met

Determine if C[C@]12C=CC(=O)C=C1[C@@H](F)C[C@H]1[C@@H]3C[C@H]4OC(C5CCN(C(=O)C6COC(=O)C6)CC5)O[C@@]4(C(=O)SCF)[C@@]3(C)C[C@H](O)[C@@]12F (stereo partly shown) [Compound 4] shows EC50 strictly lower than 4 nM. Criterion not met

Determine if C[C@]12C=CC(=O)C=C1CC[C@H]1[C@@H]3C[C@H]4OC(c5ccc(SC6CCOC6=O)cc5)O[C@@]4(C(=O)CO)[C@@]3(C)C[C@H](O)[C@@]12F (stereo partly shown) [Compound 41] shows EC50 strictly lower than 4 nM. Criterion not met

Determine if C[C@]12C=CC(=O)C=C1CC[C@H]1[C@@H]3C[C@H]4OC(c5ccc(COC6COC(=O)C6)cc5)O[C@@]4(C(=O)CO)[C@@]3(C)C[C@H](O)[C@@]12F (stereo partly shown) [Compound 19] shows EC50 strictly lower than 4 nM. Criterion met
